biological target: Growth factor receptor-bound protein 2 (Homo sapiens); experiment: Inhibition of recombinant GRB2-SH2 domain
Sequence (P62993 whole entry, the tested form may be a part): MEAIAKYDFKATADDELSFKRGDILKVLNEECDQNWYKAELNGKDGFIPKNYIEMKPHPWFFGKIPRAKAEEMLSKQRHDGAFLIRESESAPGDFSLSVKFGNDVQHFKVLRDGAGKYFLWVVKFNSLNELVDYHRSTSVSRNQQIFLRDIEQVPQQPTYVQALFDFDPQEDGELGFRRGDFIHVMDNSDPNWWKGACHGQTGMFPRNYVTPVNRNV
Numbered stars: 1 amine (or outer) side, 2 acyl side, 3 side chain; on linkers, the order of the positions; unused ones are H or OH. Bridge positions count the residues as written; N and C are the ends. Square brackets hold non-standard residues; d marks the D form. Peptide text beside a SMILES is read from it. X1 = O=C(O)c1cc(C[C@H](N[*:1])C(=O)[*:2])ccc1O; Aad = N[C@@H](CCCC(=O)O)C(=O)O; Ac6c = NC1(C(=O)O)CCCCC1; Ava = NCCCCC(=O)O
experimental-endpoint: pIC50
API: returns pIC50 as number; meaning -log10 of concentration in mol/L.

compound	pIC50
COc1cc(C[C@@H]2NC(=O)[C@H](CC(C)C)NC(=O)[C@H](CCCC(=O)O)NC(=O)C[S+]([O-])C[C@@H](C(N)=O)NC(=O)CCCCNC(=O)[C@H](CC(N)=O)NC(=O)C3(CCCCC3)NC2=O)ccc1O (some centres undefined)	4.01
CC(C)C[C@@H]1NC(=O)[C@H](CCCC(=O)O)NC(=O)CSC[C@@H](C(N)=O)NC(=O)CCCCNC(=O)[C@H](CC(N)=O)NC(=O)C2(CCCCC2)NC(=O)[C@H](Cc2ccc(O)cc2)NC1=O ({CH2CO}-[Aad]LY[Ac6c]N[Ava]C-NH2; thioether N-7)	4.03
CC(C)C[C@@H]1NC(=O)[C@H](CCCC(=O)O)NC(=O)C[S+]([O-])C[C@@H](C(N)=O)NC(=O)CCCCNC(=O)[C@H](CC(N)=O)NC(=O)C2(CCCCC2)NC(=O)[C@H](Cc2ccc(O)cc2)NC1=O (some centres undefined)	4.11

# ---- query compound ----
**Query** Let me know recorded pIC50 for CC(C)C[C@@H]1NC(=O)[C@H](CCCC(=O)O)NC(=O)CSC[C@@H](C(N)=O)NC(=O)CCCCNC(=O)[C@H](CC(N)=O)NC(=O)C2(CCCCC2)NC(=O)[C@H](Cc2ccc(O)c(C(=O)O)c2)NC1=O ({CH2CO}-[Aad]L[X1][Ac6c]N[Ava]C-NH2; thioether N-7) , thanks.
**Result** 4.06
